system: HB3; experiment: qHTS profiling for inhibitors of Plasmodium falciparum proliferation (AID 504749); also: nearly all actives have a fitted effect of over 60% in size; settings: P. falciparum in erythrocytes, SYBR Green DNA, 72 h; series mostly up to 28.7 µM
Inconclusive results are not listed. Activity calls are given as the source filed them. Calls follow the shape of the dose curve; as a rule, active = well fitted inhibition curve with a large enough effect; inconclusive = small, poorly fitted or top-dose-only effect; inactive = flat fitted curve, though single readings scatter.
assay readout: outcome

Known results for compounds:
N[C@@H]1CONC1=O	inactive
CC(=O)Oc1ccccc1C(=O)O	inactive
NNCCc1ccccc1	inactive
NCCc1ccc(O)c(O)c1	inactive
NC[C@H](O)c1ccc(O)c(O)c1	inactive

Asked: Respond only with outcome recorded for O=c1[nH]cnc2[nH]ncc12
Given back: inactive

Asked: Respond only with outcome recorded for NCCCC(N)(C(=O)O)C(F)F (centres undefined)
Given back: inactive

Asked: Respond only with outcome recorded for Nc1nc2c(ncn2COCCO)c(=O)[nH]1
Given back: inactive

Asked: Respond only with outcome recorded for CCCc1nn(C)c2c(=O)[nH]c(-c3cc(S(=O)(=O)N4CCN(C)CC4)ccc3OCC)nc12
Given back: inactive

Asked: Respond only with outcome recorded for Nc1ccc(S(=O)(=O)Nc2ccnn2-c2ccccc2)cc1
Given back: inactive

Asked: Respond only with outcome recorded for CNC[C@H](O)c1cccc(O)c1
Given back: inactive

Asked: Respond only with outcome recorded for CC(c1cc2ccccc2s1)N(O)C(N)=O (centres undefined)
Given back: inactive

Asked: Respond only with outcome recorded for Cc1ccccc1C(OCCN(C)C)c1ccccc1 (centres undefined)
Given back: inactive

Asked: Respond only with outcome recorded for CCCCNc1cc(C(=O)O)cc(S(N)(=O)=O)c1Oc1ccccc1
Given back: inactive

----------
molecular target: Phosphoglycerate kinase, glycosomal (Trypanosoma brucei brucei) (UniProt P07378); assay: qHTS Validation Assay to Find Inhibitors of Phosphoglycerate Kinase (AID 504547); conditions: enzymatic PGK inhibition, coupled luminescence read-out; series mostly up to 57.5 µM
Sequence (P07378 whole entry, looked up): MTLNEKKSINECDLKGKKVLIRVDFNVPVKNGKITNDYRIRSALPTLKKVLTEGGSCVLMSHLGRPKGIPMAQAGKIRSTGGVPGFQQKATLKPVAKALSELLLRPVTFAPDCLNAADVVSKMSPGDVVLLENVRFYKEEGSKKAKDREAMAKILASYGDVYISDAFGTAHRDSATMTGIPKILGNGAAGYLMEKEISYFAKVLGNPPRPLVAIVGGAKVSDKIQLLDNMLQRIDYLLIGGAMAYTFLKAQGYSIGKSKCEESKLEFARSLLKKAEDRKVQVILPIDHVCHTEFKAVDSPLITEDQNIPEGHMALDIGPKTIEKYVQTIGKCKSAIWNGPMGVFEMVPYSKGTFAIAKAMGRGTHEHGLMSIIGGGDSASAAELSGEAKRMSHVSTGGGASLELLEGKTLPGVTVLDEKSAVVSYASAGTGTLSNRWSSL
Calls of active or inactive are those of the source. The call rests on the fitted dose curve; in most records, active means well fitted inhibition curve with a large enough effect; inconclusive means small, poorly fitted or top-dose-only effect; inactive means flat fitted curve, though single readings scatter.
assay readout: outcome

OC(CCN1CCCCC1)(c1ccccc1)C1CC2C=CC1C2 (stereo not drawn)	inactive
CCN(CC)CCCC(C)Nc1ccnc2cc(Cl)ccc12 (stereo not drawn)	inactive
Cc1cccc(-c2[nH]c(C(C)(C)C)nc2-c2ccc3nccnc3c2)n1	inactive
NCCCC(N)(C(=O)O)C(F)F (stereo not drawn)	inactive
Cc1ccc(N(CC2=NCCN2)c2cccc(O)c2)cc1	inactive
NS(=O)(=O)c1cc2c(cc1Cl)NC=NS2(=O)=O	inactive
NC(=O)c1cnccn1	inactive
Nc1nc2c(ncn2COCCO)c(=O)[nH]1	inactive

Asked: Give outcome; test system Phosphoglycerate kinase, glycosomal (Trypanosoma brucei brucei) (UniProt P07378); molecule C[C@]12CCC(=O)C=C1CC[C@@H]1[C@@H]2[C@@H](O)C[C@@]2(C)[C@H]1CC[C@]2(O)C(=O)CO
Given back: inactive

Asked: Give outcome; test system Phosphoglycerate kinase, glycosomal (Trypanosoma brucei brucei) (UniProt P07378); molecule CC(C)(C)NCC(O)c1ccc(O)c(CO)c1 (stereo not drawn)
Given back: inactive

Asked: Give outcome; test system Phosphoglycerate kinase, glycosomal (Trypanosoma brucei brucei) (UniProt P07378); molecule CCCC(CCC)C(=O)O
Given back: inactive

Asked: Give outcome; test system Phosphoglycerate kinase, glycosomal (Trypanosoma brucei brucei) (UniProt P07378); molecule CNC[C@H](O)c1cccc(O)c1
Given back: inactive

Asked: Give outcome; test system Phosphoglycerate kinase, glycosomal (Trypanosoma brucei brucei) (UniProt P07378); molecule NC(N)=NC(=O)c1nc(Cl)c(N)nc1N
Given back: inactive
